Source of measurements: patent US20180009764A1

assay-remarks: Solubility in varying solvents
Format: physicochemical
particulars: 21 °C, oil or lipid; Corn oil; 20-22° C.
observation-type: solubility (mg/mL)
Reply numerically in mg/mL, unit not repeated.

Task: What does the data say about its solubility? Entry: Fc1ccccc1-c1cc(I)ncn1
Result: 15

---

Hi there, I'd appreciate the recorded half-life for every entry that follows.
assay-remarks: Pharmacokinetics parameters in rats
Format: in vivo
particulars: rat, plasma, read-out: Terminal plasma half-life (converted)
Reply numerically in h, unit not repeated.

Task: What does the data say about its half-life? Entry: COc1ccc(-c2cc(I)ncn2)c(F)c1F [ACT-MIF-001]
Result: 7.1

Task: What do you get for Fc1ccccc1-c1cc(I)ncn1 [ACT-MIF-003, 4-Iodo-6-(2-fluorophenyl)pyrimidine] ?
Result: 1.5

Task: What do you get for COc1ccc(-c2cc(I)ncn2)c(F)c1 [ACT-MIF-002] ?
Result: 1.66

---

Hi there, I'd appreciate the recorded solubility for every entry that follows.
assay-remarks: Solubility in varying solvents
Assay type: physicochemical
particulars: 21 °C, aqueous with cosolvent or surfactant or cyclodextrin; Ethanol/Tween 80; 20-22° C.

Task: What does the data say about its solubility? Entry: NC(=O)c1cccc(-c2cc(I)ncn2)c1
Result: 10 mg/mL

Task: What do you get for Fc1ccccc1-c1cc(I)ncn1 ?
Result: 20 mg/mL

---

assay-remarks: Microsomal stability in human liver microsomes
Assay type: in vitro ADME
particulars: both, human, microsomes, 1 h, pH 7.4
Lab note: compare Metabolic Stability in Human Microsomes % Remaining with 70%, writing Condition met if less and Condition not met if equal or more.

Task: is_below(Metabolic Stability in Human Microsomes % Remaining, 70%) for CCOc1ccc(-c2cc(I)ncn2)cc1F ?
Result: Condition not met

Task: What do you get for Fc1ccc(-c2cc(I)ncn2)c(F)c1 ?
Result: Condition met

Task: What do you get for NC(=O)c1cccc(-c2cc(I)ncn2)c1 ?
Result: Condition not met

Task: What do you get for Ic1cc(-c2cccnc2)ncn1 ?
Result: Condition not met

Task: What do you get for CC(=O)Nc1cccc(-c2cc(I)ncn2)c1 ?
Result: Condition not met

Task: What do you get for COc1ccc(-c2cc(I)ncn2)c(F)c1F ?
Result: Condition met

Task: What do you get for COc1ccc(-c2cc(I)ncn2)c(F)c1 ?
Result: Condition met

Task: What do you get for Fc1ccccc1-c1cc(I)ncn1 ?
Result: Condition met

---

Hi there, I'd appreciate the recorded Caco-2 Permeability Papp A-B for every entry that follows.
Test system: Caco-2 monolayers
assay-remarks: Caco-2 cell permeability and transport
Format: in vitro ADME
Set-up: unit not given here
particulars: apical-to-basolateral; pH 7.4; 2 hours

Task: What does the data say about its Caco-2 Permeability Papp A-B? Entry: Fc1ccccc1-c1cc(I)ncn1
Result: 2.1

Task: What do you get for COc1ccc(-c2cc(I)ncn2)c(F)c1F ?
Result: <0.1

Task: What do you get for COc1ccc(-c2cc(I)ncn2)c(F)c1 ?
Result: 0.2

Task: What do you get for NC(=O)c1cccc(-c2cc(I)ncn2)c1 ?
Result: 3.1

---

assay-remarks: Solubility in varying solvents
Type: physicochemical
particulars: 21 °C, organic solvent or mixture; DMSO; 20-22° C.
observation-type: solubility (mg/mL)
Reply numerically in mg/mL, unit not repeated.

Task: What does the data say about its solubility? Entry: Fc1ccccc1-c1cc(I)ncn1 [ACT-MIF-003, 4-Iodo-6-(2-fluorophenyl)pyrimidine]
Result: 216

---

System: Caco-2 monolayers
assay-remarks: Caco-2 cell permeability and transport
Assay type: in vitro ADME
Set-up: unit not given here
particulars: basolateral-to-apical; pH 7.4; 2 hours
observation-type: Caco-2 Permeability Papp B-A
When you answer, write just the number.

Task: What does the data say about its Caco-2 Permeability Papp B-A? Entry: NC(=O)c1cccc(-c2cc(I)ncn2)c1
Result: 3.3

Task: What do you get for Fc1ccccc1-c1cc(I)ncn1 ?
Result: 2.6

Task: What do you get for CCOc1ccc(-c2cc(I)ncn2)cc1F ?
Result: 3.0

---

assay-remarks: Microsomal stability in human liver microsomes
Format: in vitro ADME
particulars: both, human, microsomes, 0 h, pH 7.4
observation-type: Metabolic Stability in Human Microsomes % Remaining (%)
Reply numerically in %, unit not repeated.

Task: What does the data say about its Metabolic Stability in Human Microsomes % Remaining? Entry: NC(=O)c1cccc(-c2cc(I)ncn2)c1
Result: 100

Task: What do you get for Ic1cc(-c2cccnc2)ncn1 ?
Result: 100

Task: What do you get for CCOc1ccc(-c2cc(I)ncn2)cc1F ?
Result: 100

Task: What do you get for COc1ccc(-c2cc(I)ncn2)c(F)c1 ?
Result: 100

Task: What do you get for Fc1ccc(-c2cc(I)ncn2)c(F)c1 ?
Result: 100

Task: What do you get for CC(=O)Nc1cccc(-c2cc(I)ncn2)c1 ?
Result: 100

Task: What do you get for COc1ccc(-c2cc(I)ncn2)c(F)c1F ?
Result: 100

Task: What do you get for Fc1ccccc1-c1cc(I)ncn1 ?
Result: 100

---

assay-remarks: Caco-2 cell permeability and transport
Format: in vitro ADME
particulars: human, Caco-2, pH 7.4
Procedure: Cell permeability and transport mechanisms in Caco-2 and MDR1-MDCK monolayers experiments were performed in triplicate in the apical-to-basolateral and basolateral-to-apical direction using […]® wells containing either Caco-2 or MDR1-MDCK monolayers. A modified Hanks buffer pH 7.4 was used in both reservoir and receiver wells with the addition of 1% BSA in the receiver side. […] A sample in the basolateral and apical sides was taken after 2 hours and the concentration measured by LC/MS-MS.
Lab note: compare efflux ratio at 2 h with 1, writing True if less and False if equal or more.

Task: is_below(efflux ratio at 2 h, 1) for Ic1cc(-c2cncc3ccccc23)ncn1 ?
Result: False

Task: What do you get for Ic1cc(-c2cccnc2)ncn1 ?
Result: False

Task: What do you get for Fc1ncccc1-c1cc(I)ncn1 ?
Result: True

Task: What do you get for Fc1ccccc1-c1cc(I)ncn1 ?
Result: False

Task: What do you get for NC(=O)c1cccc(-c2cc(I)ncn2)c1 ?
Result: False

Task: What do you get for CCOc1ccc(-c2cc(I)ncn2)cc1F ?
Result: False

---

Test system: Caco-2 monolayers
assay-remarks: Caco-2 cell permeability and transport
Format: in vitro ADME
observation-type: Caco-2 Permeability Class

Known Caco-2 Permeability Class results, listed for orientation:
structure-string	Caco-2 Permeability Class
Fc1ccccc1-c1cc(I)ncn1	High
Ic1cc(-c2cccnc2)ncn1	High
Fc1ncccc1-c1cc(I)ncn1	High
COc1ccc(-c2cc(I)ncn2)c(F)c1	Low

Task: What does the data say about its Caco-2 Permeability Class? Entry: Ic1cc(-c2cncc3ccccc23)ncn1
Result: Low

Task: What do you get for COc1ccc(-c2cc(I)ncn2)c(F)c1F ?
Result: Low

Task: What do you get for NC(=O)c1cccc(-c2cc(I)ncn2)c1 ?
Result: High

Task: What do you get for CCOc1ccc(-c2cc(I)ncn2)cc1F ?
Result: High

---

assay-remarks: in vitro
Assay type: in vitro ADME
particulars: human, plasma, Human Plasma Protein Binding % Bound
Hi there, I'd appreciate the recorded fraction unbound for every entry that follows.

Task: What does the data say about its fraction unbound? Entry: Fc1ccccc1-c1cc(I)ncn1
Result: 0.038

Task: What do you get for COc1ccc(-c2cc(I)ncn2)c(F)c1F ?
Result: 0.017

Task: What do you get for COc1ccc(-c2cc(I)ncn2)c(F)c1 ?
Result: 0.021

Task: What do you get for CC(=O)CC(c1ccccc1)c1c(O)c2ccccc2oc1=O (stereo not shown) [Warfarin, reference compound] ?
Result: 0.01

---

assay-remarks: Solubility in varying solvents
Type: physicochemical
particulars: 21 °C, organic solvent or mixture; Ethanol; 20-22° C.
observation-type: solubility (mg/mL)
Reply numerically in mg/mL, unit not repeated.

Task: What does the data say about its solubility? Entry: Fc1ccccc1-c1cc(I)ncn1
Result: 85

Task: What do you get for NC(=O)c1cccc(-c2cc(I)ncn2)c1 ?
Result: 1.4

---

Hi there, I'd appreciate the recorded solubility for every entry that follows.
assay-remarks: Solubility in varying solvents
Assay type: physicochemical
particulars: 21 °C, organic solvent or mixture; PEG-300; 20-22° C.
Reply numerically in mg/mL, unit not repeated.

Task: What does the data say about its solubility? Entry: NC(=O)c1cccc(-c2cc(I)ncn2)c1
Result: 13.3

Task: What do you get for Fc1ccccc1-c1cc(I)ncn1 ?
Result: 66

---

Tested on: Du 145
assay-remarks: Inhibition of tumor cells proliferation (CellTiter Glo)
Format: cell-based
particulars: Homo sapiens, 72 hours
Hi there, I'd appreciate the recorded IC50 for every entry that follows.
Reply numerically in µM, unit not repeated.

Task: What does the data say about its IC50? Entry: Ic1cc(-c2cccnc2)ncn1 [ACT-MIF-006, 4-Iodo-6-(pyridin-3-yl)pyrimidine]
Result: 36.7

Task: What do you get for Fc1ccccc1-c1cc(I)ncn1 [ACT-MIF-003, 4-Iodo-6-(2-fluorophenyl)pyrimidine] ?
Result: 16.5

Task: What do you get for COc1ccc(-c2cc(I)ncn2)c(F)c1 [ACT-MIF-002] ?
Result: 24.9

Task: What do you get for NC(=O)c1cccc(-c2cc(I)ncn2)c1 [ACT-MIF-035] ?
Result: 21.7
